# Test system: MS2 coat protein
# assayRemarks: apparent KD of MS2 coat protein; higher = weaker reporter binding
# particulars: Eterna round: R107; input ligand: tryptophan 2.4 mM
Kind request: treat 0.04 µM as inclusive, so apparent KD of MS2 coat protein at 0.04 µM or higher is y, anything lower is n.

- seq: "AACACACCAAAUGAUACCAGCUACAACAUGAUACAAAACCACAUGAGGAUCACCCAUGUAAGCCCUUGGCAGCAUACUACUGUAA [theeternabot_exclusion_MS2_Theo_B_40]"
  className: "n"
- seq: "AAAAGACAUGAGGAUCACCCAUGUAGAGAUACCAGAUGCAUGGACAUCCCUUGGCAGCUCGUCACUUUCUAUAUUUUCCAGACGC [theeternabot_sameState_MS2_Theo_A_37]"
  className: "y"
- seq: "AUAUGAUCAUAUGAUACCAGAAAUGGUAUUCCUUUCUUUCUUACAUGAGGAUCACCCAUGUUCCCUUGGCAGCAUAUGAUCAUAU [ETHB #1]"
  className: "y"
- seq: "UGUAUGGACUGAAGGAGCGGGUAAAUAACUUGAGGAUCACCCAGGUAAAAGGCGAAAGCCACCCAGGUAGGUCGCAGUCCAUACU"
  className: "n"
- seq: "ACAUGAGGAUCACCCAUGUCUGCCUCGGAUACCAGCGGAAGAAAACGCCCUUGGCAGCCGAACAUGAGGAUCACCCAUGUAGGCU [Same State Theophylline A GF30]"
  className: "y"
- seq: "UGAUAUGUAGGAAGGAGCGCAUACUUCACAUGAGGAUCACCCAUGUCAAGACGUGAGUCAGUGCAGGUAGGUCGCCUAGUUAUGA [Same State - Arginine B (Freestyle 20)]"
  className: "n"
- seq: "CGAAUAUAGGCUACGUGUCAUUGAGGCGAUACCAGAUUAUGCCAGAUCCCUUGGCAGCGCCAAACAUGAGGAUCACCCAUGUUCA [theeternabot_exclusion_MS2_Theo_A_38]"
  className: "n"
- seq: "AAUAAGCAGCUGCAAGGUGAUCCUGCAGAUACCAGCUAGGAAACUAGCCCUUGGCAGCUGCAACAUGAGGAUCACCCAUGUAAUA [(T)'-(M)'-(T1)-(T2)-(M1)-(M2)_Design6]"
  className: "n"
- seq: "CGGCCCUCACCUGAGGAUCACCCAGGUGAUACCAGCCUGGAAACAGGCCCUUGGCAGCACCAGGUCAUCAAAGAUGACCAAGCCG [TheoAX 23 #SwitchBubble]"
  className: "n"

---

Entries annotated with measured apparent KD of MS2 coat protein
# Test system: MS2 coat protein
# assayRemarks: apparent KD of MS2 coat protein, switch OFF state (with FMN for OFF switches, without FMN for ON switches); designed switch direction (-1 OFF switch, 1 ON switch): 1; higher = weaker reporter binding
# particulars: FMN input: 0 or 200 uM; Eterna round: R93 (includes R88 designs)

- seq: "AAAUAAAUGACUGAGGAUAUAUCGAAGAAGACAUGAGGAUCACCCAUGUGAUAAUAAAAAGGGUGGUAGAAGGUAGUCAACAAAC [Mod 8 of Pariah 4 by Hyphema in Round 1]"
  measuredTarget: "MS2 coat protein"
  u: "nM"
  apparent KD of MS2 coat protein: 122
- seq: "AAAAGACAUGAGGAUCACCCAUGUUAAGACGUAGGAGGAUAUGUAUGGAAAACAUGCUGUACAGAAGGCCUGUGUC [SS1 - 26]"
  measuredTarget: "MS2 coat protein"
  u: "nM"
  apparent KD of MS2 coat protein: 20.8
- seq: "AGGAAACAUGAGGAUCACCCAUGUAAGAUAUAUACAGGAUAUGCGAAAAGAAACAAAGAAGCAGAAGGGUAAAAAA [75%, Ex sub1, 13]"
  measuredTarget: "MS2 coat protein"
  u: "nM"
  apparent KD of MS2 coat protein: 25.5
- seq: "AAAAAAAAAGUGCAGGAUAUCCUCAUGGCUACAUGAGGAUCACCCAUGUGAAGAAAAGCACAUGAGGAGAAGGGCACAAAAAAAAA [Balance beam]"
  measuredTarget: "MS2 coat protein"
  u: "nM"
  apparent KD of MS2 coat protein: 23.1
- seq: "GACAAACAUGAGGAUCACCCAUGUAGAAAUAUGGGAGGAUAUACAAAGACGAAAGUCAAAGUAGAAGGCCUAAAAG [77%, Mat - Mod of Eli - With 1 more C's]"
  measuredTarget: "MS2 coat protein"
  u: "nM"
  apparent KD of MS2 coat protein: 79
- seq: "AUAUAUAUAAGGAAGGAUAUCCAAAAAUAAACAUGAGGAUCACCCAUGUCCAUAAAGAAUAAAUGGGAGAAGGUCCAUAUAUAUA [77%, More Tesla, 9]"
  measuredTarget: "MS2 coat protein"
  u: "nM"
  apparent KD of MS2 coat protein: 123

---

Catalogue of apparent KD of MS2 coat protein readings, one per entry.
# System: MS2 coat protein
# assayRemarks: apparent KD of MS2 coat protein, switch OFF state (with FMN for OFF switches, without FMN for ON switches); designed switch direction (-1 OFF switch, 1 ON switch): -1; higher = weaker reporter binding
# particulars: FMN input: 0 or 200 uM; Eterna round: R93 (includes R88 designs)
reportedMetric: apparent KD of MS2 coat protein (nM)

- seq: "AAAAAGUGAGGAUAUACAUGAGGAUCACCCAUGUGUAUAAAAAAUUACACAAAAGCAUGUAGAAGGCACUAAAA [JL In the Red]"
  measuredResult: 143
- seq: "CUCAAGUAAGGAUAUCGAAGAAAAGAAGAGAAAGAAAAGAACGAGAAGGUACAUGAGGAUCACCCAUGUAAGAA [EteRNA is fun!]"
  measuredResult: 28
- seq: "GCUGUCGUAGGAUAUACAUGAGGAUCACCCAUGUGAGAGAAAAAAGUGAGAAAGAAAAGUAGAAGGACGGUAGG [salish99-ex3-105]"
  measuredResult: 43.1
- seq: "AUAAAGCGAGGAUAUACAUGAGGAUCACCCAUGUAAAUAAAUAGGAGAGCCACAAUAAGUAGAAGGUGCAAUAA [JR_Exc003_Sub008]"
  measuredResult: 46.5
- seq: "AAAACGGUAGGAUAUACGAUUUGGAACUAGACCGAGGAACCACAUGAGGAUCACCCAUGUAGAAGGACCAAAAA [EX2 Malc#18]"
  measuredResult: 10.7
- seq: "ACGACUAGAGGAUAUACAUGAGGAUCACCCAUGUAACUGUCAGAAAACUGACGGAGAUGUAGAAGGCUAGUCGA [Mat - Exclusion 3 - Neo mod - D80]"
  measuredResult: 36.1

---

# Test system: MS2 coat protein
# assayRemarks: apparent KD of MS2 coat protein; designed switch direction (-1 OFF switch, 1 ON switch): -1; higher = weaker reporter binding
# particulars: Eterna round: R95; input ligand: FMN 200 uM
# if value of apparent KD of MS2 coat protein reaches 0.03 µM, tag true; if it stays below, tag false

- seq: "UGAGAACAUGAGGAUCACCCAUGUAAGGAUAUGCGAAGAGUUUGGAGAGGUUGAGGAGGCAGAAGGUACGGGAG [JR_Exclu1_Sub045] (puzzle: Exclusion 1)"
  className: "true"
- seq: "GAAAAGGUAGGAUAUACGAAAAAAAAGGCUAGAAAAAAAACACAUGAGGAUCACCCAUGUAGAAGGACCAAAAG [salish99_ex2_r3_068] (puzzle: Exclusion 2)"
  className: "false"
- seq: "AGAUGUAGAUACCGAUCCUACAUGAGGAUCACCCAUGUAGCUAGACGUGCGGGCGGCGCUCGUCGGACUACCAGUAG [salish99_TOv1_r3_095] (puzzle: Sensor v3, turn-off variant 1)"
  className: "true"
- seq: "GCCAGAGGAGGAUAUCUAAUAUAUCACAUGAGGAUCACCCAUGUCCAGCGAAAGCUGGAGGGAGAAGGCCUCUGGC [Fiskers Ex 5 - 23] (puzzle: Exclusion 5)"
  className: "true"
- seq: "GGUUGGCGAGGAUAUACAUGAGGAUCACCCAUGUGAGAAGAAAAAGUGAGGAAGAAAAGUAGAAGGCGCUGACG [Mat - Exclusion 3 - Mod of Salish D1] (puzzle: Exclusion 3)"
  className: "true"
- seq: "AGAGAUGCCCAUGGCCGCAAGCUUUUUGCUUGUCUUACCACAUGAGGAUCACCCAUGUGACAUGGGCUCCUUAUAAU [Essoator] (puzzle: Sensor v3, turn-off variant 2)"
  className: "false"
- seq: "AAGAAACGAGGAUAUACAGUUGAGUGAGAGAGGGAAGUGUUACAUGAGGAUCACCCAUGUAGAAGGCGUGAGAG [JR_Exclu2_Sub088] (puzzle: Exclusion 2)"
  className: "true"
- seq: "UAAUACAAGUAAAGAUCCUACAUGAGGAUCACCCAUGUGCUCGUCUUGUAAAGUACUAUCACGAAAGUGAUAGUACA [Mat - Sensor v3 - turn-off var 1 - Eli Mod - D85] (puzzle: Sensor v3, turn-off variant 1)"
  className: "true"
- seq: "CUUAGCCUAAAAUCACGCAAGCCUUUUGCUUGUCUUAAGACAUGAGGAUCACCCAUGUCCGGGCUGAACUUAUGGAA [Geanon] (puzzle: Sensor v3, turn-off variant 2)"
  className: "false"
- seq: "AGUCCAGAUGUUAGGAUAUGCAACUAGCCAUUGUAGCAGAAGGAACAUGAGGAUCACCCAUGUACAAAGACCCG [Edgeraer] (puzzle: Brourd's mod of Exclusion 4)"
  className: "true"
- seq: "GAAUAGGCAGGAUAUACAUGAGGAUCACCCAUGUGCAAGCGAAAGGUACGUGAACAACGUAGAAGGGCCUAAAC [ChP 13.04.2015 #10] (puzzle: Exclusion 3)"
  className: "false"
- seq: "GUAGAGUAAGGAUAUUGAGAAUAGGAUAGAAUGGUUAGAAUCAAGAAGGUACAUGAGGAUCACCCAUGUAAUGU [Excluse me!!!! 6 - Jieux - Exclusion 4] (puzzle: Exclusion 4)"
  className: "false"
